- Test: Half life in Sprague-Dawley rat at 1 mg/kg, iv administered as single dose measured for 24 hrs by LC-MS/MS analysis
- Assay type: ADME, organism-based
- Cond: in vivo
Reported metric: half-life (min)
// units = min; emit number, no label

What value of half-life has been reported for the following molecule? CCc1cc2c(cc1N1CCN(C(=O)CNc3cccc4c3C(=O)N(C3CCC(=O)NC3=O)C4=O)CC1)C(C)(C)c1[nH]c3cc(C#N)ccc3c1C2=O (stereo unspecified)
25.2

---

- Test: AUC (0 to t) in Sprague-Dawley rat at 1 mg/kg, iv administered as single dose measured for 24 hrs by LC-MS/MS analysis
- Assay type: ADME, organism-based
- Set-up: time 24 hrs, dose 1 mg/kg, route iv
- Cond: in vivo
Reported metric: AUC(0-t) at 24 h (ng·h/mL)
Give just the number in ng·h/mL; leave the unit off.

Data request, read-out AUC(0-t) at 24 h, for CCc1cc2c(cc1N1CCN(C(=O)CNc3cccc4c3C(=O)N(C3CCC(=O)NC3=O)C4=O)CC1)C(C)(C)c1[nH]c3cc(C#N)ccc3c1C2=O (stereo unspecified)
146
